# MEASUREMENT TARGET: Serine/threonine-protein kinase DCLK2 (Homo sapiens);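 further: each value is a mean percent inhibition of DCLK2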
# RUN PARAMETERS: at 1 µM
REPORTED ENDPOINT: inhibition (%)
Respond numerically; units are % and should not be typed.

Reference set (2 entries):
| COMPOUND | UNIT ABBREV | NUMERIC READOUT |
| --- | --- | --- |
| Nc1ncnc2occ(-c3ccc(NC(=O)Nc4cc(C(F)(F)F)ccc4F)cc3)c12 | % | -4.63 |
| COc1c(C(N)=O)cc(-c2ccc(Cl)cc2)cc1-c1ccc(S(N)(=O)=O)cc1 | % | 2.52 |

INPUT: Give the value of inhibition reported for the following: `Fc1cccc(COc2ccc(Nc3ncncc3C#Cc3ccccc3)cc2Cl)c1`
OUTPUT: -0.09

INPUT: Look up and report measured inhibition for this entry: `NS(=O)(=O)c1ccc(N/N=C2\C(=O)Nc3cccc(CCc4ccncc4)c32)cc1`
OUTPUT: -0.08

INPUT: Give inhibition for `COc1ccc2ncn(-c3cc(O[C@H](C)c4ccccc4C(F)(F)F)c(C(N)=O)s3)c2c1`
OUTPUT: -1.64

INPUT: Please list inhibition recorded for the compound `N#Cc1cccc(Nc2ncc(-c3ccccc3)o2)c1`
OUTPUT: 0.28

INPUT: Query inhibition for `O=C(Nc1n[nH]c2nnc(-c3cccnc3)cc12)C1CC1`
OUTPUT: -0.41

INPUT: Output measured inhibition for this item: `NS(=O)(=O)c1ccc(N/N=C2\C(=O)Nc3ccc(C(=O)NCc4ccncc4)cc32)cc1`
OUTPUT: 0.04

INPUT: Give a short answer stating reported inhibition for `CCCNc1cccc(-n2ncc3c(N/N=C/c4ccncc4)ncnc32)c1` .
OUTPUT: 2.98

INPUT: Consider the compound `CCS(=O)(=O)c1ccc(OC)c(Nc2ncc(-c3cccc(F)c3)o2)c1` . State its measured inhibition.
OUTPUT: 1.48

INPUT: Find the measured inhibition of `COc1cc(Nc2ncc(-c3ccccc3)o2)cc(OC)c1` and report it.
OUTPUT: 1.7

INPUT: Please give measured inhibition of the following entry: `CC(C)c1ccc(-c2cc(-c3c[nH]nc3-c3ccccn3)ccn2)cc1`
OUTPUT: -0.35

INPUT: // Input: `CCN1CCC(C(=O)Nc2n[nH]c3nnc(-c4cccc(F)c4F)cc23)CC1` . Output its inhibition only.
OUTPUT: -0.98

INPUT: Indicate the recorded inhibition value for this compound: `c1ccc(-c2n[nH]cc2-c2ccnc(-c3ccc(OCCn4ccnc4)cc3)c2)nc1`
OUTPUT: -6.73

INPUT: Return the recorded inhibition value; entry: `COc1ccccc1-c1cc(/C=C2\C(=O)Nc3ncc(Br)cc32)cc(Br)c1O`
OUTPUT: 1.21

INPUT: Note inhibition for the compound shown: `CS(=O)(=O)Nc1ccc(-c2cc(-c3ccccc3)cc(C(N)=O)c2N)cc1`
OUTPUT: 1.02

INPUT: Please give measured inhibition of the following entry: `COc1cc(N2CCN(C(C)C)CC2)ccc1Nc1nc(Nc2cccc(F)c2C(=O)O)c2cc[nH]c2n1`
OUTPUT: 1.63

INPUT: Supply reported inhibition belonging to this compound: `CS(=O)(=O)Nc1ccc(-c2ccc3c(NC(=O)C4CC4)n[nH]c3c2)cc1`
OUTPUT: 1.42

INPUT: Please indicate inhibition recorded for `FC(F)(F)CNc1nccc(-c2cnn3ncccc23)n1`
OUTPUT: 3.19

INPUT: Read off the recorded inhibition for CC1=C(C(=O)Nc2ccc3[nH]ncc3c2)C(c2ccc(F)cc2)N=C(c2ccc(C(F)(F)F)nc2)N1 (stereo unspecified)
OUTPUT: 4.18

INPUT: Quote inhibition reported for `CCn1c(-c2nonc2N)nc2cncc(C(=O)NCCNC)c21` please.
OUTPUT: 1.62
